- MEASUREMENT_PROTOCOL: RPMI8226 myeloma cell viability, profiling panel, resazurin fluorescence, basal, 24 h, PK04 Diversity Set (AID 1180);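 further: RPMI8826 multiple myeloma cell line at 5000 cells per well; test concentration not given here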
- MEASUREMENT_SETUP: higher = more signal
Mark not met for z-score values under 0.05, and met for everything at or above.

[[record]]
compound = "O=C1[C@H]2[C@H]3[C@H](O)[C@H](O)CC(=NOCc4ccccc4)[C@H]3CC[C@H]2C(=O)N1C1CCCCC1"
classification = "not met"

[[record]]
compound = "O=C1[C@H]2CCn3c(=O)n(Cc4cc5c(cc4Cl)OCO5)c(=O)n3[C@H]2[C@H](O)[C@@H]2O[C@H]12"
classification = "not met"

[[record]]
compound = "CCCNC(=O)OC[C@H]1O[C@H](CCON=C2C[C@@H](O)[C@@H](O)[C@@H]3[C@@H]4C(=O)N(CC)C(=O)[C@@H]4CC[C@@H]23)C=C[C@@H]1Oc1ccc(OC)cc1"
classification = "not met"

[[record]]
compound = "CC(=O)OC[C@H]1O[C@H](CC=NO[C@@H](C)c2cc(-c3c(C)cc(C)cc3C)no2)C=C[C@@H]1OC(C)=O"
classification = "met"

[[record]]
compound = "CCOC(=O)[C@H](CC(C)C)NC(=O)CCC1CC(OC(=O)NCc2ccc3c(c2)OCO3)CC2(CCCC(COC(=O)NCCC(C)C)O2)O1 (stereo partly drawn)"
classification = "met"

[[record]]
compound = "COc1ccc(COC(=O)NN=C2C[C@@H](O)[C@@H](O)[C@@H]3[C@@H]4C(=O)N([C@@H](C)c5ccccc5)C(=O)[C@@H]4CC[C@H]23)cc1"
classification = "met"

[[record]]
compound = "CO[C@H]1COC(=O)[C@H](CCSC)NC(=O)CC=C[C@@H](C)[C@H](OC)COC(=O)[C@@H](OCc2ccccc2)C=C[C@@H]1C"
classification = "met"

[[record]]
compound = "COC(=O)[C@@H]1CC[C@H](C)[C@@H](c2ccc(C)cc2)N1C(=O)c1ccc(C=NO[C@@H](C)c2cc(-c3c(C)cc(C)cc3C)no2)cc1"
classification = "met"

[[record]]
compound = "CC(CCC(=O)OC[C@H]1O[C@H](C#Cc2ccccc2)C=C[C@@H]1Oc1ccc(C)cc1)=NO[C@@H](C)c1cc(-c2c(C)cc(C)cc2C)no1"
classification = "met"

[[record]]
compound = "CC(=O)OC[C@H]1O[C@@H](ON=C2[C@H]3CCn4c(=O)n(-c5ccccc5)c(=O)n4[C@H]3[C@H](O)[C@@H]3O[C@H]23)[C@H](OC(C)=O)[C@@H](OC(C)=O)[C@@H]1OC(C)=O"
classification = "not met"

[[record]]
compound = "CC(=O)OC[C@H]1O[C@H](CC=NO[C@H](C)c2cn([C@@H]3COC[C@H]3O)nn2)C=C[C@@H]1OC(C)=O"
classification = "not met"

[[record]]
compound = "CC(CCN1CCCc2nc(C)c(C)cc21)=NO[C@@H](C)c1cn([C@H](CO)Cc2ccccc2)nn1"
classification = "not met"

[[record]]
compound = "CCOC(=O)[C@H](Cc1ccccc1)NC(=O)CCC1CC(OC(=O)NCc2cccc3ccccc23)CC2(CCCC(COC(=O)NCCc3ccc(Cl)cc3)O2)O1 (stereo partly drawn)"
classification = "met"

